Protein target, amino acids: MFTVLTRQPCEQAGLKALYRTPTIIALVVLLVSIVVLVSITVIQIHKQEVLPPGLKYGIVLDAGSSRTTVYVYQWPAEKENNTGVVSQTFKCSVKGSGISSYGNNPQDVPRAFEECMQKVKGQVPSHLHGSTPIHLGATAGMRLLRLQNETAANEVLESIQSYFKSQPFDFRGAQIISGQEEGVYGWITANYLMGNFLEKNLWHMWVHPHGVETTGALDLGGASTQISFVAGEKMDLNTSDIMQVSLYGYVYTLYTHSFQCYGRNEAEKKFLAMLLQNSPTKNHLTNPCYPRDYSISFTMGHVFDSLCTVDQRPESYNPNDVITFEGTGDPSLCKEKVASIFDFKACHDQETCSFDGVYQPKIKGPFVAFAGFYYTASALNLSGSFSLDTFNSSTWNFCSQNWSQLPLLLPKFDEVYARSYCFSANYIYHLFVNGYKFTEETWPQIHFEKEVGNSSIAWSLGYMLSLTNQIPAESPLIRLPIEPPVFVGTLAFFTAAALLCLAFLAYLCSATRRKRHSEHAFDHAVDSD
outcome_measure: IC50 (µM)
Write the value in µM as a bare number.

IC50 for Cc1cc(Nc2ncc(Cl)c(Nc3ccccc3S(=O)(=O)C(C)C)n2)c(OC(C)C)cc1C1CCNCC1 ?
22.7
